molecular target: MCH receptor (Homo sapiens, UniProt Q99705); assay: High throughput functional screening FLIPR/FDSS6000: inhibition of MCH-evoked intracellular Ca2+ changes; format: cell-based; details: class by percent of control at 10^−7 M or by IC50; read-out: class
pIC50: −log10 of the molar value.
For each record, write down the corresponding pIC50.

Prompt: Return reported pIC50; argument: CN(C)c1nc(N[C@H]2CC[C@@H](C(=O)NCc3ccc(F)cc3Cl)CC2)nc2ccccc12 [Example 1182]
Completion: > 7.30

Prompt: # iterate: Cc1c(Cl)cccc1CNC(=O)[C@H]1CC[C@@H](Nc2nc(N(C)C)c3ccccc3n2)CC1 [Example 1144]
Completion: > 7.30

Prompt: # iterate: CN(C)c1nc(N[C@H]2CC[C@@H](CNC(=O)Nc3cc(Cl)ccc3Cl)CC2)nc2ccccc12 [Example 1027]
Completion: 6.70 to 7.30

Prompt: # iterate: CN(C)c1nc(N[C@H]2CC[C@@H](C(=O)NCc3ccc(F)c(Cl)c3)CC2)nc2ccccc12 [Example 1181]
Completion: > 7.30

Prompt: # iterate: CC(NC(=O)[C@H]1CC[C@@H](Nc2nc(N(C)C)c3ccccc3n2)CC1)c1ccc(Br)cc1 (relative stereo) [Example 1140]
Completion: > 7.30

Prompt: # iterate: COc1cccc(Oc2ccc(C(=O)N[C@H]3CC[C@@H](Nc4nc(N(C)C)c5ccccc5n4)CC3)cn2)c1 [Example 1056]
Completion: > 7.30

Prompt: # iterate: CN(C)c1nc(N[C@H]2CC[C@@H](NC(=O)c3cccnc3Oc3cccc(F)c3)CC2)nc2ccccc12 [Example 1034]
Completion: > 7.30

Prompt: # iterate: CN(C)c1nc(N[C@H]2CC[C@@H](NC(=O)c3cccc(NC(=O)C(C)(C)C)c3)CC2)nc2ccccc12 [Example 1202]
Completion: 6.70 to 7.30

Prompt: # iterate: CN(C)c1nc(N[C@H]2CC[C@@H](CNC(=O)Nc3cc(Cl)cc(Cl)c3)CC2)nc2ccccc12 [Example 1024]
Completion: > 7.30

Prompt: # iterate: CN(C)c1nc(N[C@H]2CC[C@@H](C(=O)NCc3ccc(F)cc3C(F)(F)F)CC2)nc2ccccc12 [Example 1174]
Completion: > 7.30
